// self-cleavage lookup, one value per entry
B1: Twister Ribozyme (parent)
chain: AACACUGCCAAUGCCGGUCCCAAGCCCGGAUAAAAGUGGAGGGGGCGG

Variants of: B1
Experiment: self-cleavage, relative activity (ratio to wild type); higher = more cleavage; co-transcriptional

MUTANT ID	self-cleavage
C5G A11C	0.298
C5G G48C	0.77
A1U A33C	0.0396
C25A C26U	0.0948
U18G C21G	0.0716
C19U G44A	1.03
A22C A23U	0.243
C9G A10G	0.656
A1U C26U	0.0863
G24A C25A	0.115
C19G C27A	0.0851
U6A G16A	0.604
G13A G16U	0.168
C14U A35U	1.03
C9A C21G	0.164
G38C G45C	0.473

Recorded values, source the RNAGym collection of RNA variant scans (doi:10.7554/elife.80360).
